Tested on: XF498
Assay: NCI tumour cell line growth inhibition, 48 h
Calls of active or inactive are those of the source. No stated cut-off is given here; in the data, active = GI50 up to about 1.1 µM and inactive = higher.
Classes used: 1 = active, 0 = inactive

1) CCOC(=O)C(=O)NCCCN1CCOCC1 | 0
2) CCC1(OC(=O)CN2CCN(CCO)CC2)C(=O)OCc2c1cc1n(c2=O)Cc2cc3ccccc3nc2-1 (stereo not given) | 0
3) COc1cc(Cl)c2c3c(c(C(=O)c4ccccc4)oc13)CCC2 | 0
4) CCC(C)CN1C(=O)NC(Cc2ccccc2)C1=O (stereo not given) | 0
5) CC(=O)O[C@H]1C(=O)[C@@]2(C)C([C@H](OC(=O)c3ccccc3)[C@]3(O)C[C@H](OC(=O)[C@H](O)[C@H](NC(=O)c4ccccc4)c4ccc(Cl)cc4)C(C)=C1C3(C)C)C1(OC(C)=O)CO[C@@H]1C[C@@H]2O (stereo not given in full) | 1
6) OCCNCCOc1ccc(/C(=C(/Cl)c2ccccc2)c2ccccc2)cc1 | 0
7) COc1ccc(/C=C/c2cc(OC)c(OCc3ccccc3)c(OC)c2)cc1 | 0
8) Cc1ccc(-n2c3nc(=O)n(C)c(=O)c-3nc3ccccc32)c(C)c1 | 0
9) NC(=O)c1cccc([C@@H]2O[C@H](CO)[C@@H](O)[C@H]2O)c1 | 0
10) CN(CC1NCCCC1O)C12CC3CC(CC(C3)C1)C2 (stereo not given) | 0
